Reported Ki values follow for various molecules
- target entity: Beta-2 adrenergic receptor (Homo sapiens)
- Sequence (P07550 whole entry): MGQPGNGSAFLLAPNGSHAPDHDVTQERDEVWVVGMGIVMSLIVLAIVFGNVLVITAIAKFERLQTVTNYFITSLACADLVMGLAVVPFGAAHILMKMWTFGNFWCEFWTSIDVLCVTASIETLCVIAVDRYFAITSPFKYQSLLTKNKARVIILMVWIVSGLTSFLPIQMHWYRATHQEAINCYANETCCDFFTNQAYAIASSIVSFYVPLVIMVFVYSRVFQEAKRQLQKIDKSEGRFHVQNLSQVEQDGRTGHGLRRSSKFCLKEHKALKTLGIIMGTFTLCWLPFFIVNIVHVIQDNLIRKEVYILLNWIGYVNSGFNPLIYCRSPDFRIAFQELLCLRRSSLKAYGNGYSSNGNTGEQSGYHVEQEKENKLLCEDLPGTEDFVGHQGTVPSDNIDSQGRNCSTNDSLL
- assay notes: Displacement of [3H]DHA from beta2 adrenergic receptor (unknown origin) stably expressed in HEK293 cell membranes measured after 90 mins by scintillation counting analysis
- condition context: read-out: pKi (converted)
State just the number; it will be interpreted in nM.

CC(C)NC[C@H](O)COc1ccccc1CCCCCCc1ccccc1OC[C@@H](O)CNC(C)C    0.955
CC(C)NC[C@H](O)COc1ccccc1-n1cc(CNCc2cn(-c3ccccc3OC[C@@H](O)CNC(C)C)nn2)nn1    38.9
CC(C)NC[C@H](O)COc1ccccc1CCCCNC(=O)NCCCCc1ccccc1OC[C@@H](O)CNC(C)C    0.38
CC(C)NC[C@H](O)COc1ccccc1CCCC(=O)NCCNC(=O)CCCc1ccccc1OC[C@@H](O)CNC(C)C    0.759
CC(C)NC[C@H](O)COc1ccccc1CCCCCCCCc1ccccc1OC[C@@H](O)CNC(C)C    0.794
CC(C)NC[C@H](O)COc1ccccc1CCn1cc(CNCc2cn(CCc3ccccc3OC[C@@H](O)CNC(C)C)nn2)nn1    0.891
CC(C)NC[C@H](O)COc1ccccc1CC(=O)NCCNC(=O)Cc1ccccc1OC[C@@H](O)CNC(C)C    468
CC(C)NC[C@H](O)COc1ccccc1CCNC(=O)NCCc1ccccc1OC[C@@H](O)CNC(C)C    3.47
CC(C)NC[C@H](O)COc1ccccc1CCCCCCCCCCCCc1ccccc1OC[C@@H](O)CNC(C)C    1.15
CC(C)NC[C@H](O)COc1ccccc1CCC(=O)NCCNC(=O)CCc1ccccc1OC[C@@H](O)CNC(C)C    11.7

For the molecule CC(C)NC[C@H](O)COc1ccccc1CCCCCCCCCCc1ccccc1OC[C@@H](O)CNC(C)C , what Ki is on record?
1.51

For the molecule CC(C)NC[C@H](O)COc1ccccc1CCCNC(=O)NCCCc1ccccc1OC[C@@H](O)CNC(C)C , what Ki is on record?
1.17

For the molecule CC(C)NC[C@H](O)COc1ccccc1CCCn1cc(CNCc2cn(CCCc3ccccc3OC[C@@H](O)CNC(C)C)nn2)nn1 , what Ki is on record?
0.437

For the molecule CC(C)NC[C@H](O)COc1ccccc1Cn1cc(CNCc2cn(Cc3ccccc3OC[C@@H](O)CNC(C)C)nn2)nn1 , what Ki is on record?
15.5

====

- Species on record: Homo sapiens
- assay notes: Selectivity ratio of IC50 for antagonist activity at beta1 adrenergic receptor (unknown origin) stably expressed in HEK293 cell membranes to IC50 for antagonist activity at beta2 adrenergic receptor (unknown origin) stably expressed in HEK293 cell membranes
- Assay type: cell-based
Exam item: assign yes (1) to entries whose Ratio IC50 is below 5 and no (0) to entries at or above 5. Note that a value of exactly 5 receives no (0).

Consider the worked cases shown below.
CC(C)NC[C@H](O)COc1ccccc1CCCCCCCCCCCCc1ccccc1OC[C@@H](O)CNC(C)C    yes (1)
CC(C)NC[C@@H](O)COc1ccccc1CCCC(=O)NCCNC(=O)CCCc1ccccc1OC[C@H](O)CNC(C)C    no (0)
CC(C)NC[C@H](O)COc1ccccc1-n1cc(CNCc2cn(-c3ccccc3OC[C@@H](O)CNC(C)C)nn2)nn1    no (0)
CC(C)NC[C@H](O)COc1ccccc1CCn1cc(CNCc2cn(CCc3ccccc3OC[C@@H](O)CNC(C)C)nn2)nn1    yes (1)
CC(C)NC[C@H](O)COc1ccccc1CCCCCCCCc1ccccc1OC[C@@H](O)CNC(C)C    no (0)

For CC(C)NC[C@H](O)COc1ccccc1CCCC(=O)NCCCCNC(=O)CCCc1ccccc1OC[C@@H](O)CNC(C)C , is the recorded Ratio IC50 below the cut-off of 5?
no (0)

Entry source: ChEMBL document CHEMBL4373696
